TEST_NAME: acute toxicity, intraperitoneal injection in mice
MEASUREMENT_PARAMETERS: mouse, in vivo, ip
OBSERVABLE: LD50

C=CC1(C)CC(OC(=O)CO[C@@H]2OC[C@@H](O)[C@H](O)[C@H]2O)C2(C)C(C)CCC3(CCC(=O)C32)C(C)C1O (some centres unmarked)
> 300 mg/kg

From here, focus on the item given below.
Report LD50 for C=CC1(C)CC(OC(=O)CO[C@@H]2OC[C@@H](OC(C)=O)[C@H](OC(C)=O)[C@H]2OC(C)=O)C2(C)C(C)CCC3(CCC(=O)C32)C(C)C1OC(C)=O (some centres unmarked) [Tetraacetyl A-40104A]
> 300 mg/kg
